target: APOL1 G2 (Homo sapiens, UniProt O14791, DEL388-389); construct: expressed in transfected cells; host or cells: HEK293 T-REx clonal lines: HEK T-REx/GCaMP6f/APOL1 G2 K6.3 in A1, HEK293/T-REx APOL1 G2/clone #2 in A2; assay: APOL1 calcium transport inhibition assay (GCaMP6f calcium influx, FLIPR) in HEK T-REx/GCaMP6f/APOL1 G2 K6.3 cells; assay type: cell-based; details: inhibition of APOL1-mediated calcium influx; geometric mean of at least 2 assay runs, † = single assay run (technical duplicate)
Sequence (O14791 with tags, fused parts or gaps DEL388-389): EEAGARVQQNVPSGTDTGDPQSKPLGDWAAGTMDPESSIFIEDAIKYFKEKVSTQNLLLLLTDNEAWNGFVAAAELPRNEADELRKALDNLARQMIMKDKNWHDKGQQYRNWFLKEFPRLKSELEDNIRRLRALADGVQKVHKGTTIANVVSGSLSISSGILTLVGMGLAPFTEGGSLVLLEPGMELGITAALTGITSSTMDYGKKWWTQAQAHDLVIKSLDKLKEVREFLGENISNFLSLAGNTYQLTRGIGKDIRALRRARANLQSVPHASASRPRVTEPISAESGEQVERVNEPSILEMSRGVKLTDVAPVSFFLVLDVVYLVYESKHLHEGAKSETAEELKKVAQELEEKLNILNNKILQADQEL
measured property: AC50 (nM)

[[record]]
molecule = "CN(c1ccc(OC[C@H](O)CN2CCC(c3cccc(Cl)c3)C2)cc1)S(C)(=O)=O (single isomer, unassigned) [Compound 78]"
system_name = "APOL1 G2 (Homo sapiens, UniProt O14791, DEL388-389)"
assay_result = 7010


[I] C[C@@H]1CN(CCc2cccc(S(F)(F)(F)(F)F)c2)C[C@H]1COc1ccc(S(C)(=O)=O)cc1
[II] CN(c1ccc(OC[C@@H](O)CNCCc2cccc(Cl)c2)cc1)S(C)(=O)=O
Q: Which shows the larger AC50 value: I or II ? Pick one; state its label.
Result: I
